settings: in n-propanol, 313.15 K
measured-property: solubility (mole fraction)
Reply briefly: the number, and no unit.

Documented solubility (mole fraction) of CCOC(=O)c1c(CSc2ccccc2)n(C)c2cc(Br)c(O)c(CN(C)C)c12.Cl.O : 0.0112

---

conditions: in ethanol, 308.15 K
measured-property: solubility (mole fraction)
Reply briefly: the number, and no unit.

Documented solubility (mole fraction) of CCOC(=O)c1c(CSc2ccccc2)n(C)c2cc(Br)c(O)c(CN(C)C)c12.Cl.O : 0.0154

---

conditions: in THF, 298.15 K
measured-property: solubility (mole fraction)
Reply briefly: the number, and no unit.

Documented solubility (mole fraction) of CCOC(=O)c1c(CSc2ccccc2)n(C)c2cc(Br)c(O)c(CN(C)C)c12.Cl.O : 0.000492
